Target: chicken gizzard smooth muscle myosin subfragment-1 chemically crosslinked to cardiac or skeletal actin (Gallus gallus, UniProt P10587)
Sequence (P02607 2-151): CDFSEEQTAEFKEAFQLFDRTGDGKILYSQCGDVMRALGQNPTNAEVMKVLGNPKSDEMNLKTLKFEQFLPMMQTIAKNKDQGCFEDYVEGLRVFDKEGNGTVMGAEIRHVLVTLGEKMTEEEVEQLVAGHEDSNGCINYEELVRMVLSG
Sequence (P10587 84-789): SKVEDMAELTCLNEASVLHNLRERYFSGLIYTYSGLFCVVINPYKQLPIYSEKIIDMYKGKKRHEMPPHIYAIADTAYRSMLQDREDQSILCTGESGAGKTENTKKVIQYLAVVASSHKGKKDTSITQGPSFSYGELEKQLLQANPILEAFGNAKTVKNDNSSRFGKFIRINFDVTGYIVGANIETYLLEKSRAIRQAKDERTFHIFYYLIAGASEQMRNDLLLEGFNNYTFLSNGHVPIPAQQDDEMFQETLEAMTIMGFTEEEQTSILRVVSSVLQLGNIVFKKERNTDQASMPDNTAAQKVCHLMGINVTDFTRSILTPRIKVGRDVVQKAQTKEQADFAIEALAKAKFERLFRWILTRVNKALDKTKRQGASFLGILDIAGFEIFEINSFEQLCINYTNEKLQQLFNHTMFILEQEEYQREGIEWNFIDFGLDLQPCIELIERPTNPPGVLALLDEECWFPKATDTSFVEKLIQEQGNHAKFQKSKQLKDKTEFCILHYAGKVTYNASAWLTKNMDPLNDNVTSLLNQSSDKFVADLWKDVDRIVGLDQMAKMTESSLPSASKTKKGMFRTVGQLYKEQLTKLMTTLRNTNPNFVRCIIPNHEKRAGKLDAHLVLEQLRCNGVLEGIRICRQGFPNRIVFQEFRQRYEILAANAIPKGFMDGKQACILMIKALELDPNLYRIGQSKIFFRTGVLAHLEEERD
Measured IC50 values are reported for all entries that follow.
MEASURED_PARAMETER: IC50

[[record]]
smiles = "N#Cc1ccccc1-c1ccc(C(=O)NC[C@H]2CCCN2C(=O)CO)c(NCCc2cccc(F)c2)n1"
measured_parameter = "IC50"
assay_value = "116 nM"

[[record]]
smiles = "O=C(NCc1cccnc1)c1ccc(-c2ccc(F)cc2)nc1NCCc1cccc(F)c1"
measured_parameter = "IC50"
assay_value = "198 nM"

[[record]]
smiles = "Cn1cc(-c2nc(NCCc3cccc(F)c3)c(C(=O)NC[C@H]3CCN3C(=O)OC(C)(C)C)cc2F)cn1"
measured_parameter = "IC50"
assay_value = "525 nM"

[[record]]
smiles = "N#Cc1cccc(-c2ccc(C(=O)NCc3cccnc3)c(NCCc3ccccn3)n2)c1"
measured_parameter = "IC50"
assay_value = "2990 nM"

[[record]]
smiles = "Cn1cc(-c2ccc(C(=O)NC[C@H]3CCCN3)c(NCCc3cccc(F)c3)n2)cn1"
measured_parameter = "IC50"
assay_value = "3180 nM"


====

Molecular target: chicken gizzard smooth muscle myosin subfragment-1 chemically crosslinked to cardiac or skeletal actin (Gallus gallus, UniProt P10587)
Construct: chicken gizzard smooth muscle myosin subfragment-1; from tissue; host or cells: chicken gizzard
Experiment: Smooth muscle myosin ATPase dose response assay (pyruvate kinase/horseradish peroxidase/pyruvate oxidase-coupled, amplex red fluorescence)
Type: biochemical
Conditions: read-out: IC50 Arithmetic Mean
pIC50: −log10 of the molar value.
MEASURED_PARAMETER: pIC50

[[record]]
smiles = "N#Cc1ccccc1-c1ccc(C(=O)NCCNC(=O)CCCN)c(NCCc2cccc(F)c2)n1"
measured_parameter = "pIC50"
assay_value = 5.90

[[record]]
smiles = "CC[C@H](CNC(=O)c1cc(F)c(-c2cn[nH]c2)nc1NCCc1cccc(F)c1)NC(=O)CNC(=O)OC(C)(C)C"
measured_parameter = "pIC50"
assay_value = 5.36

[[record]]
smiles = "N#Cc1ccccc1-c1ccc(C(=O)NCC(CO)CO)c(NCCc2cccc(F)c2)n1"
measured_parameter = "pIC50"
assay_value = 6.68

[[record]]
smiles = "Cn1cc(-c2ccc(C(=O)NCc3ccnn3CCCN)c(NCCc3cccc(F)c3)n2)cn1"
measured_parameter = "pIC50"
assay_value = 6.64

[[record]]
smiles = "N#Cc1ccccc1-c1ccc(C(=O)NCc2ncccc2CN)c(NCCc2cccc(F)c2)n1"
measured_parameter = "pIC50"
assay_value = 6.20

[[record]]
smiles = "C[C@H](CNC(=O)c1cc(F)c(-c2cnn(C)c2)nc1NCCc1cccc(F)c1)NCC(N)=O"
measured_parameter = "pIC50"
assay_value = 6.20

[[record]]
smiles = "C[C@H](CNC(=O)c1ccc(-c2ccccc2C#N)nc1NCCc1cccc(F)c1)NS(C)(=O)=O"
measured_parameter = "pIC50"
assay_value = 5.88

[[record]]
smiles = "NCc1ncccc1CNC(=O)c1ccc(-c2cc[nH]n2)nc1NCCc1cccc(F)c1"
measured_parameter = "pIC50"
assay_value = 7.37

[[record]]
smiles = "C[C@@H](CNC(=O)CN)CNC(=O)c1cc(F)c(-c2cnn(C)c2)nc1NCCc1cccc(F)c1"
measured_parameter = "pIC50"
assay_value = 6.82


====

Target: chicken gizzard smooth muscle myosin subfragment-1 chemically crosslinked to cardiac or skeletal actin (Gallus gallus, UniProt P10587)
pIC50: −log10 of the molar value.
Label true (1) for high-side pIC50 (at or above 6) and false (0) for low-side pIC50 (below it).

[[record]]
smiles = "N#Cc1ccccc1-c1ccc(C(=O)NCc2cccnc2)c(NCCc2ccccn2)n1"
qualitative_label = "true (1)"

[[record]]
smiles = "C[C@H](CNC(=O)c1cc(F)c(-c2cnn(C)c2)nc1NCCc1cccc(F)c1)NC(=O)[C@@H](N)CO"
qualitative_label = "true (1)"

[[record]]
smiles = "O=C(NCc1cccnc1)c1ccc(-c2ccncc2)nc1NCCc1ccccn1"
qualitative_label = "false (0)"

[[record]]
smiles = "CN1CCN(C(=O)CCN)[C@@H](CNC(=O)c2ccc(-c3ccccc3C#N)nc2NCCc2cccc(F)c2)C1"
qualitative_label = "false (0)"

[[record]]
smiles = "N#Cc1ccccc1-c1ccc(C(=O)NC[C@H]2CNCCN2C(=O)CCN)c(NCCc2cccc(F)c2)n1"
qualitative_label = "false (0)"

[[record]]
smiles = "N#Cc1ccccc1-c1ccc(C(=O)NCc2ncccc2C(F)(F)F)c(NCCc2cccc(F)c2)n1"
qualitative_label = "true (1)"

[[record]]
smiles = "Cn1cc(-c2nc(NCCc3cccc(F)c3)c(C(=O)NC[C@H]3CCCN3C(=O)CCCNC(=O)OC(C)(C)C)cc2F)cn1"
qualitative_label = "true (1)"

[[record]]
smiles = "N#Cc1ccccc1-c1ccc(C(=O)NC[C@@H]2CN(CCN)CC(=O)N2)c(NCCc2cccc(F)c2)n1"
qualitative_label = "false (0)"

[[record]]
smiles = "COC(=O)CCC(=O)N1CC[C@@H]1CNC(=O)c1ccc(-c2ccccc2C#N)nc1NCCc1cccc(F)c1"
qualitative_label = "true (1)"

[[record]]
smiles = "O=C(NCc1cccc(NCCO)n1)c1ccc(-c2cn[nH]c2)nc1NCCc1cccc(F)c1"
qualitative_label = "true (1)"

[[record]]
smiles = "CC(=O)NCCCNC(=O)c1cc(F)c(-c2cnn(C)c2)nc1NCCc1cccc(F)c1"
qualitative_label = "false (0)"

[[record]]
smiles = "O=C(NCc1cccnc1)c1cc(CO)c(-c2ccccc2)nc1NCCc1cccc(F)c1"
qualitative_label = "true (1)"

[[record]]
smiles = "CC(C)(C)OC(=O)N[C@@H](CO)C(=O)N1CC[C@@H]1CNC(=O)c1ccc(-c2ccccc2C#N)nc1NCCc1cccc(F)c1"
qualitative_label = "false (0)"

[[record]]
smiles = "NCCCNc1cccc(CNC(=O)c2ccc(-c3cn[nH]c3)nc2NCCc2cccc(F)c2)n1"
qualitative_label = "true (1)"

[[record]]
smiles = "N#Cc1ccccc1-c1nc(NCCc2cccc(F)c2)c(C(=O)NCc2cccnc2)cc1Cl"
qualitative_label = "true (1)"

[[record]]
smiles = "O=C(NCc1cccnc1)c1c(CO)cc(-c2ccccc2)nc1NCCc1cccc(F)c1"
qualitative_label = "false (0)"

